Target System: T1, human TIGIT on Jurkat cells (TIGIT/NFAT reporter Jurkat cells, BPS Bioscience #60538); Promega TIGIT Effector … (human, UniProt Q495A1 22-244)
T1 sequence (looked up): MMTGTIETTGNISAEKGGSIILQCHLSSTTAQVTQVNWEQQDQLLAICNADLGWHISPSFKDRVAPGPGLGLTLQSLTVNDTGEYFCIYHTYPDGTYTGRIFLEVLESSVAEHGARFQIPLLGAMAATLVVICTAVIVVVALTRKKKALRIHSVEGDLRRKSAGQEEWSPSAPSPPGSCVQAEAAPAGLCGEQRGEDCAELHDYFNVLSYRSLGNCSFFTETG
Method Description: cell-based or functional assay
Quantity Kind: max. signal (% of 22G2)

Give the measured max. signal (% of 22G2) for 43586p2.B02 (scFv, V domains shown) VH: EVQLLESGGGLVQPGGSLRLSCAASGFTFTSYAMSWVSQAPGKGLEWVAGISYDGSSKYYADSVKGRLTISRDNSKNTLYLQMNSLRAEDTAIYYCAKHLTGGTTDYYYYAMDVWGQGTTVTVSS VL: QSVLTQPPSASGTPGQRVTISCSGSRSNIGTNRYVHWYQQLPGTAPKLLIYGNHQRPSGVPDRFSGSKSGTSASLAISGLQSEDEADYYCAAWDDSLSAWVFGGGTKLTVL 106 % of 22G2

These entries and their values trace back to patent US20230265187A1.
